assay: Absorptive permeability across traditional 21 day Caco-2 cell model; conditions: human
quantity: Papp A→B at 25 μM (×10⁻⁶ cm/s)

INSERT INTO assay_data (compound, readout_value) VALUES
  ('CCc1cc(C(N)=S)ccn1 [Ethionamide]', 23.8),
  ('CC(NC(C)(C)C)C(=O)c1cccc(Cl)c1 (centres unmarked) [Bupropion]', 16.6),
  ('NC(=O)N1c2ccccc2C=Cc2ccccc21 [Carbamazepine]', 20.9),
  ('CC(=O)CC(c1ccccc1)c1c(O)c2ccccc2oc1=O (centres unmarked) [Warfarin sodium]', 15.3),
  ('COCCc1ccc(OCC(O)CNC(C)C)cc1 (centres unmarked) [Metoprolol]', 12.1);

----------
assay: Absorptive permeability across traditional 21 day Caco-2 cell model; conditions: human
quantity: Papp A→B at 25 μM (×10⁻⁶ cm/s)

INSERT INTO measurements (molecule, quantity, readout_value) VALUES
  ('CC(C(=O)O)c1cccc(C(=O)c2ccccc2)c1 (stereo not drawn)', 'Papp A→B at 25 μM', 19.2),
  ('COc1ccc2[nH]c([S+]([O-])Cc3ncc(C)c(OC)c3C)nc2c1 (stereo not drawn)', 'Papp A→B at 25 μM', 12.6),
  ('COC(=O)[C@H]1[C@H]2C[C@@H]3c4[nH]c5cc(OC)ccc5c4CCN3C[C@H]2C[C@@H](OC(=O)c2cc(OC)c(OC)c(OC)c2)[C@@H]1OC', 'Papp A→B at 25 μM', 3.5),
  ('CC(C)NCC(O)COc1cccc2ccccc12 (stereo not drawn)', 'Papp A→B at 25 μM', 10.6),
  ('CC(=O)N1CCN(c2ccc(OCC3COC(Cn4ccnc4)(c4ccc(Cl)cc4Cl)O3)cc2)CC1 (stereo not drawn)', 'Papp A→B at 25 μM', 9.61),
  ('O=C(N[C@H](CO)[C@H](O)c1ccc([N+](=O)[O-])cc1)C(Cl)Cl', 'Papp A→B at 25 μM', 8.17),
  ('CC(C)(C)NCC(O)c1cc(O)cc(O)c1 (stereo not drawn)', 'Papp A→B at 25 μM', 15.6),
  ('Nc1ccc(S(=O)(=O)Nc2ncccn2)cc1', 'Papp A→B at 25 μM', 9.76),
  ('CCOC(=O)C1=C(C)NC(C)=C(C(=O)OC)C1c1cccc(Cl)c1Cl (stereo not drawn)', 'Papp A→B at 25 μM', 4.34);

----------
experiment: Absorptive permeability across 7 day fast model; conditions: human, Caco-2
Label TRUE for high-side Papp A→B at 25 μM (at or above 100 nm/s) and FALSE for low-side Papp A→B at 25 μM (below it).

INSERT INTO assay_data (compound, label_class) VALUES
  ('CC(=O)CC(c1ccccc1)c1c(O)c2ccccc2oc1=O (stereo not drawn) [Warfarin sodium]', 'TRUE'),
  ('COC(=O)[C@H]1[C@H]2C[C@@H]3c4[nH]c5cc(OC)ccc5c4CCN3C[C@H]2C[C@@H](OC(=O)c2cc(OC)c(OC)c(OC)c2)[C@@H]1OC [Reserpine]', 'FALSE'),
  ('COc1ccc2[nH]c([S+]([O-])Cc3ncc(C)c(OC)c3C)nc2c1 (stereo not drawn) [Omeprazole]', 'TRUE'),
  ('CC(C)NCC(O)COc1cccc2ccccc12 (stereo not drawn) [Propranolol]', 'FALSE'),
  ('CC(C(=O)O)c1cccc(C(=O)c2ccccc2)c1 (stereo not drawn) [Ketoprofen]', 'TRUE'),
  ('CC(C)(C)NCC(O)c1cc(O)cc(O)c1 (stereo not drawn) [Terbutaline]', 'TRUE'),
  ('COCCc1ccc(OCC(O)CNC(C)C)cc1 (stereo not drawn) [Metoprolol]', 'TRUE'),
  ('NC(=O)N1c2ccccc2C=Cc2ccccc21 [Carbamazepine]', 'TRUE'),
  ('CC(=O)N1CCN(c2ccc(OCC3COC(Cn4ccnc4)(c4ccc(Cl)cc4Cl)O3)cc2)CC1 (stereo not drawn) [Ketoconazole]', 'FALSE'),
  ('CCc1cc(C(N)=S)ccn1 [Ethionamide]', 'TRUE'),
  ('O=C(N[C@H](CO)[C@H](O)c1ccc([N+](=O)[O-])cc1)C(Cl)Cl [Chloramphenicol]', 'FALSE'),
  ('CC(NC(C)(C)C)C(=O)c1cccc(Cl)c1 (stereo not drawn) [Bupropion]', 'TRUE');
